- ASSAY EXPLANATION: oral pharmacokinetics (plasma, brain, CSF)
- Type: in vivo
- EXPERIMENTAL SETUP: Sprague Dawley, rat, plasma, po, 10 mg/kg, Sprague Dawley rats, per os 10 mg/kg, normal saline (first four compounds: 5% NMP, 5% Solutol HS, 90% normal saline); read-out: Tmax
Below, each of the molecules is paired with its reported Tmax value.
Respond with the figure and its unit, in that order.

MOLECULE | READOUT VALUE
CC(=O)N1CCC2(CCNC2=O)CC1 | 0.58 h
O=C1NCCC12CCNCC2 | 1 h
O=C1NCCC12CCCN2 (single isomer, unassigned) [RW-1, 1,7-diazaspiro[4.4]nonan-6-one] | 1 h
O=C1NCCC12CCCNC2 (centres unmarked) [RB-1, 2,7-diazaspiro[4.5]decan-1-one] | 1.17 h

Incoming: Provide Tmax value for the following molecule: O=C1NCCC12CCCCN2 (centres unmarked)
Outgoing: 0.83 h

---

T1/2 overview
- ASSAY EXPLANATION: IV pharmacokinetics
- Format: in vivo
- EXPERIMENTAL SETUP: Sprague Dawley rats, intravenous 2 mg/kg

Known results for compounds:
COMPOUND | T1/2
O=C1NCCC12CCCNC2 (stereo not shown) [RB-1, 2,7-diazaspiro[4.5]decan-1-one] | 201 min
O=C1NCCC12CCCNC2 (stereo not shown) [RC-1, 2,7-diazaspiro[4.5]decan-1-one] | 81.6 min
CC(C)(C)OC(=O)N1CCCCC12CCNC2=O (stereo not shown) | 20.4 min

For the next question, use this compound.
Incoming: Please look at this compound and report its T1/2: CC(C)(C)OC(=O)N1CCCC2(CCNC2=O)C1 (single isomer, unassigned)
Outgoing: 11.4 min

---

- ASSAY EXPLANATION: oral pharmacokinetics (plasma, brain, CSF)
- Assay type: in vivo
- EXPERIMENTAL SETUP: Sprague Dawley, rat, plasma, po, 10 mg/kg, Sprague Dawley rats, per os 10 mg/kg
Quick reference: AUC(0-t) of the listed items.
Give a bare numeral; the unit ng·h/mL is implied.

Solved entries:
MOLECULE | AUC(0-t) (ng·h/mL)
CC(C)(C)OC(=O)N1CCCC2(CCNC2=O)C1 (single isomer, unassigned) [RE-1] | 273
CC(=O)N1CCC2(CCNC2=O)CC1 [RG-621] | 29100
CC(C)C(=O)N1CCC2(CCNC2=O)CC1 [RG-623] | 42600
O=C1NCCC12CCCNC2 (centres unmarked) [RB-1, 2,7-diazaspiro[4.5]decan-1-one] | 3290
CC(C)(C)OC(=O)N1CCCC12CCNC2=O (single isomer, unassigned) [RM-1] | 5010
O=C1NCCC12CCCCN2 (centres unmarked) [RG-601] | 9510

Incoming: Read the entry O=C1NCCC12CCNCC2 [RG-603] and write its reported AUC(0-t).
Outgoing: 897

Incoming: Look up and report measured AUC(0-t) for this entry: CC(C)C(=O)N1CCCC12CCNC2=O (centres unmarked) [RZ-405]
Outgoing: 29500

---

- ASSAY EXPLANATION: oral pharmacokinetics (plasma, brain, CSF)
- Assay type: in vivo
- EXPERIMENTAL SETUP: Sprague Dawley, rat, plasma, po, 10 mg/kg, Sprague Dawley rats, per os 10 mg/kg
Label rule, in plain words: bioavailability of 80% and up is True, under 80% is False.

Incoming: Dear colleague, could you confirm whether CC(C)(C)OC(=O)N1CCCC12CCNC2=O (single isomer, unassigned) [RM-1] has bioavailability at or above 80%?
Outgoing: False

// data source = patent US11530223B2
